Target: Hemagglutinin (Influenza A virus)
Measure: IC50 (mM)
Report the figure in mM without appending any unit label.

Data request: What reported IC50 corresponds to CC(=O)N[C@H]1[C@H]([C@H](O)[C@H](O)CO)OC(OCCCCCCC(=O)NCc2cccc3ccccc23)(C(=O)O)C[C@@H]1OC(=O)CNS(=O)(=O)c1cccc2c(N(C)C)cccc12 (stereo partly specified) on Hemagglutinin (Influenza A virus)?
Data returned: 3
